Biological target: T1, IL10Rα/IL2Rγ receptor (human) (UniProt Q13651)
T1 sequence (looked up) 1: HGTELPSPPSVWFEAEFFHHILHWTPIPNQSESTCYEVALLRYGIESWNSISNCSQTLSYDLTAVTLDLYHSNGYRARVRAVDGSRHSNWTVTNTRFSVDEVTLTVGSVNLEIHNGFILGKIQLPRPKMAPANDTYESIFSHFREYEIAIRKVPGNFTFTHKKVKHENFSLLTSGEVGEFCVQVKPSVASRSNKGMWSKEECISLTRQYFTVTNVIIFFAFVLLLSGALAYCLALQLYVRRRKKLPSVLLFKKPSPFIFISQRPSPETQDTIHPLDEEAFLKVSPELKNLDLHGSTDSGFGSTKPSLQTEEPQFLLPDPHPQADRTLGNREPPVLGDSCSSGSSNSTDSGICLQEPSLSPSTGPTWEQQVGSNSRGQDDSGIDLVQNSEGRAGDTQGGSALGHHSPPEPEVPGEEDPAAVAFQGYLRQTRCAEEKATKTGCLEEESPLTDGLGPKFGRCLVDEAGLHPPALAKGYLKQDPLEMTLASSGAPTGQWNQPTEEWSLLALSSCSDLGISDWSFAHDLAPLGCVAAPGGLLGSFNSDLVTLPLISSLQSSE
T1 sequence (looked up) 2: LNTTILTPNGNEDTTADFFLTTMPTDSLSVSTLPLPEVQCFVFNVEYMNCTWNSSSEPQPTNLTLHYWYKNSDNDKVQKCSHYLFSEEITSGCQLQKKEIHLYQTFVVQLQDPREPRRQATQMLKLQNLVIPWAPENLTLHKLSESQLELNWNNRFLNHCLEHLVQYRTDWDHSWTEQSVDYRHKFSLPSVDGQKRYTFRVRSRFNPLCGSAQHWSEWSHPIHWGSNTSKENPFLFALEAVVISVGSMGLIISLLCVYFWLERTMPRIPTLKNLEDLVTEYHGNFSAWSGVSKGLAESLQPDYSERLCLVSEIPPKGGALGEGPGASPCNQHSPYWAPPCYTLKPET
Assay: cell-based or functional assay
measured.property: Granzyme B secretion, CD8 T cells, at 0.001 µM (pg/mL)
Give the value, in units of pg/mL, as a plain number.

Q: # get_value(readout='Granzyme B secretion, CD8 T cells, at 0.001 µM', item= hIL10Ra_VHH14 - hIL2Rg_VHH19, linker GGSGGS, tag his (bispecific antibody, not shown: small tags and cut ends) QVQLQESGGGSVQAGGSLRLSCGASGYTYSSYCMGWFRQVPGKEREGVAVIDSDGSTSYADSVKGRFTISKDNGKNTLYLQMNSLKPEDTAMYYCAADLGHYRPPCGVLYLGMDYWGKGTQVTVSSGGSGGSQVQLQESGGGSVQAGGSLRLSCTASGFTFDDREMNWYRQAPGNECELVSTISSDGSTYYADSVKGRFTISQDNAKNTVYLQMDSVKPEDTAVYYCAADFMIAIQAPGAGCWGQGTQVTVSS )
Result: 50900

Source listed as patent US20250163162A1.
